# Test system: Escherichia coli TOP10;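 further: peptides expressed intracellularly from a pBAD plasmid library in pooled LB shake-flask culture, induced with 0.3% L-arabinose, DNA abundance read by NGS, three biological replicates, DESeq2 with apeglm shrinkage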
# Assay Text: shrunken log2 fold change of peptide-encoding DNA abundance (4.5 h post-induction vs induction); higher = less antimicrobial activity (less host growth inhibition)
# Measurement Conditions: time post-induction: 4.5 h; library: site-saturation at positions 5, 18, 19, 20
Measure: shrunken log2 fold change
API note: the answer field is a bare number with no unit suffix.

// below: answered sequences
[[record]]
construct_sequence = "RRIRRRPPRLPRPRPRPSKGPRP"
measure = "shrunken log2 fold change"
value_reported = -0.518

[[record]]
construct_sequence = "RRIRCRPPRLPRPRPRPSDLPRP"
measure = "shrunken log2 fold change"
value_reported = -0.0943

[[record]]
construct_sequence = "RRIRARPPRLPRPRPRPLIVPRP"
measure = "shrunken log2 fold change"
value_reported = 0.287

[[record]]
construct_sequence = "RRIRTRPPRLPRPRPRPAFLPRP"
measure = "shrunken log2 fold change"
value_reported = 0.228

[[record]]
construct_sequence = "RRIRIRPPRLPRPRPRPEVSPRP"
measure = "shrunken log2 fold change"
value_reported = 0.068

[[record]]
construct_sequence = "RRIRYRPPRLPRPRPRPPTIPRP"
measure = "shrunken log2 fold change"
value_reported = -0.424


Q. Fill in: shrunken log2 fold change of RRIRFRPPRLPRPRPRPHFNPRP is ___
A. -0.692

Q. Now the sequence RRIRLRPPRLPRPRPRPMHVPRP
A. -0.0348
